- measured.on: Sphingosine 1-phosphate receptor 1 (Homo sapiens)
- protocol.description: In vitro binding affinity towards human Sphingosine 1-phosphate receptor 1 expressed in HEK293T cells was determined using [gamma-35S]-GTP as radioligand; partial agonist
- Format: cell-based, HEK-293T
property.name: EC50 (nM)

* CCCCCCCCc1ccc2[nH]c([C@@H](N)COP(=O)(O)O)nc2c1.COC(=O)C(F)(F)F | 37
* CCCCCCCCc1ccc2[nH]c([C@H](N)COP(=O)(O)O)nc2c1.COC(=O)C(F)(F)F | 21
* CCCCCCCCc1ccc2[nH]c([C@@H](N)[C@@H](C)O)nc2c1.O=C(O)C(F)(F)F | 2900
* CCCCCCCCc1ccc2[nH]c([C@H](N)CO)nc2c1.O=C(O)C(F)(F)F | 330

[P] CCCCCCCCc1ccc2[nH]c([C@@H](N)[C@@H](C)OP(=O)(O)O)nc2c1.O=C(O)C(F)(F)F
[Q] CCCCCCCCc1ccc2[nH]c([C@@H](N)CO)nc2c1.O=C(O)C(F)(F)F
[R] CCCCCCCCc1ccc2[nH]c(C(C)(N)COP(=O)(O)O)nc2c1.O=C(O)C(F)(F)F (configuration not stated)
Output the entries ranked by EC50 from maximum down to minimum. Answer by writing out the labels in the requested order.
Q, R, P

* * *

- measured.on: Sphingosine 1-phosphate receptor 5 (Homo sapiens)
- Sequence (Q9H228 whole entry): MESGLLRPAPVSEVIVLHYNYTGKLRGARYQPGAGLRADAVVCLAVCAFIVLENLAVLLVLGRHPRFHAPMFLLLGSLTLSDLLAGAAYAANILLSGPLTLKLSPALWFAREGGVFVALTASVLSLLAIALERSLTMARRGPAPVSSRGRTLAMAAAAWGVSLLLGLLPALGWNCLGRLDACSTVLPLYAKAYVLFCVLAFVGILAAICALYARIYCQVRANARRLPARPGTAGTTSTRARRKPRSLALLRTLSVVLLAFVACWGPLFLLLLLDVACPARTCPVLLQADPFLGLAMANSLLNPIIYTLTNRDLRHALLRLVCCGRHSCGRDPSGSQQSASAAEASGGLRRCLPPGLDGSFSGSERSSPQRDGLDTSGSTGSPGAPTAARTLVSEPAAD
- protocol.description: In vitro binding affinity towards human Sphingosine 1-phosphate receptor 5 expressed in HEK293T cells was determined using [gamma-35S]-GTP as radioligand; partial agonist
- Format: cell-based, HEK-293T
property.name: EC50 (nM)

Some molecules with known EC50 results, for comparison:
* CCCCCCCCc1ccc2[nH]c(C(C)(N)COP(=O)(O)O)nc2c1.O=C(O)C(F)(F)F (stereo unspecified) | 370
* CCCCCCCCc1ccc2[nH]c([C@H](N)CO)nc2c1.O=C(O)C(F)(F)F | 390
* CCCCCCCCc1ccc2[nH]c([C@H](N)COP(=O)(O)O)nc2c1.COC(=O)C(F)(F)F | 8.2
* CCCCCCCCc1ccc2[nH]c([C@@H](N)COP(=O)(O)O)nc2c1.COC(=O)C(F)(F)F | 6.6

[I] CCCCCCCCc1ccc2[nH]c([C@@H](N)[C@@H](C)OP(=O)(O)O)nc2c1.O=C(O)C(F)(F)F
[II] CCCCCCCCc1ccc2[nH]c([C@@H](N)CO)nc2c1.O=C(O)C(F)(F)F
For the pair I and II , which entry has the numerically smaller recorded EC50? Lab log: write the label of the selected item as the result.
I

* * *

- measured.on: Sphingosine 1-phosphate receptor 3 (Homo sapiens, UniProt Q99500)
- Sequence (Q99500 whole entry): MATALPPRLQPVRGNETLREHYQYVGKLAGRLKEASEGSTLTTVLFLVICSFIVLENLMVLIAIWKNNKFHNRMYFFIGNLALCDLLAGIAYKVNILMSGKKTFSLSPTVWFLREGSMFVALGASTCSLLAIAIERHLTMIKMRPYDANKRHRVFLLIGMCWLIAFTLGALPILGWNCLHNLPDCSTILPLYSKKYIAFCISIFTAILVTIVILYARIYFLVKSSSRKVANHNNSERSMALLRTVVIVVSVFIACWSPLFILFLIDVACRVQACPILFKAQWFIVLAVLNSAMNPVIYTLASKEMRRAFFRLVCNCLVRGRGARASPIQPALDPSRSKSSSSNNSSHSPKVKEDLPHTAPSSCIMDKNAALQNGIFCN
- protocol.description: In vitro binding affinity towards human Sphingosine 1-phosphate receptor 3 expressed in HEK293T cells was determined using [gamma-35S]-GTP as radioligand
- Format: cell-based, HEK-293T
property.name: EC50 (nM)
Write the answer as a number in nM, unit excluded.

Reported EC50 for CCCCCCCCCCCCC/C=C/[C@@H](O)[C@@H](N)COP(=O)(O)O was 1.2

* * *

- measured.on: Sphingosine 1-phosphate receptor 1 (Homo sapiens, UniProt P21453)
- Sequence (P21453 whole entry): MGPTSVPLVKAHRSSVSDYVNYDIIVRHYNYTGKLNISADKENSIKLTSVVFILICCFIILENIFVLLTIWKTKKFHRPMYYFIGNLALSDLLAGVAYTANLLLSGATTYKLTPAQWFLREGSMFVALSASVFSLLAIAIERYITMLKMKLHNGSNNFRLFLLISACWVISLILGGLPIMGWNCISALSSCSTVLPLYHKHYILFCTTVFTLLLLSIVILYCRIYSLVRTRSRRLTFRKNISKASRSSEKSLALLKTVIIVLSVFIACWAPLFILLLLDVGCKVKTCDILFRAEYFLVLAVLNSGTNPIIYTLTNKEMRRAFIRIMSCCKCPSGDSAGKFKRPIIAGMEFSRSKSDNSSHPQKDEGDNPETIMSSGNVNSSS
- protocol.description: In vitro binding affinity towards human Sphingosine 1-phosphate receptor 1 expressed in HEK293T cells was determined using [gamma-35S]-GTP as radioligand
- Type: cell-based, HEK-293T
property.name: EC50 (nM)
Write the answer as a number in nM, unit excluded.

Let me check: CCCCCCCCCCCCC/C=C/[C@@H](O)[C@@H](N)COP(=O)(O)O , system Sphingosine 1-phosphate receptor 1 (Homo sapiens, UniProt P21453), measured EC50 is 20

* * *

- measured.on: Sphingosine 1-phosphate receptor 4 (Homo sapiens, UniProt O95977)
- Sequence (O95977 whole entry): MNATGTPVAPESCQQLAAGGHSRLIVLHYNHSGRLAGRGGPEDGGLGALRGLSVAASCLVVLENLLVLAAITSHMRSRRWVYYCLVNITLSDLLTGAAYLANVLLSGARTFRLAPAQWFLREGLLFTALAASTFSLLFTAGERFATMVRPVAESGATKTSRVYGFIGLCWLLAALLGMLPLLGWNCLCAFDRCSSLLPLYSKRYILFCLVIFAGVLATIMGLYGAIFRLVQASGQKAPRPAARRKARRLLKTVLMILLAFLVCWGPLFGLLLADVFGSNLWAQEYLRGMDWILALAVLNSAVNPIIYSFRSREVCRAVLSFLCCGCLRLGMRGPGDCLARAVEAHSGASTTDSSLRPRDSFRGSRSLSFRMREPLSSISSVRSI
- protocol.description: In vitro binding affinity towards human Sphingosine 1-phosphate receptor 4 expressed in HEK293T cells was determined using [gamma-35S]-GTP as radioligand
pEC50: −log10 of the molar value.
property.name: pEC50

Some compounds with known pEC50 results, for comparison:
* CCCCCCCCc1ccc2[nH]c([C@@H](N)[C@@H](C)OP(=O)(O)O)nc2c1.O=C(O)C(F)(F)F | 7.03
* CCCCCCCCc1ccc2[nH]c([C@@H](N)CO)nc2c1.O=C(O)C(F)(F)F | 5.38
* CCCCCCCCc1ccc2[nH]c([C@H](N)CO)nc2c1.O=C(O)C(F)(F)F | 5.80
* CCCCCCCCc1ccc2[nH]c([C@H](N)COP(=O)(O)O)nc2c1.COC(=O)C(F)(F)F | 7.44
* CCCCCCCCc1ccc2[nH]c([C@@H](N)COP(=O)(O)O)nc2c1.COC(=O)C(F)(F)F | 7.32

[a] CCCCCCCCc1ccc2[nH]c(C(C)(N)COP(=O)(O)O)nc2c1.O=C(O)C(F)(F)F (stereo not drawn)
[b] CCCCCCCCc1ccc2[nH]c([C@@H](N)[C@@H](C)O)nc2c1.O=C(O)C(F)(F)F
For the pair a and b , which entry has the numerically smaller recorded pEC50? Lab log: write the label of the selected item as the result.
b

# credit: ChEMBL document CHEMBL1137873
